# PROTOCOL DETAILS: Solubility (Test F)
# Assay type: physicochemical
# STUDY CONDITIONS: arithmetic mean if run multiple times
MEASURE: solubility

COMPOUND	MEASURE	OBSERVED VALUE
CC1(CNC(=O)[C@H]2[C@@H]3CC[C@@H](C3)[C@H]2NC(=O)c2cc(O[C@H]3CC[C@@](C)(C(=O)O)CC3)c(F)cc2OCF)CCC1 [Example 4]	solubility	> 1000 µM
COc1cc(F)c(-c2cccc(CC(=O)O)c2)cc1C(=O)N[C@@H]1CCC[C@@H]1C(=O)Nc1cccc(S(=O)(=O)C(F)(F)F)c1 [Example 318]	solubility	710 µM
COc1cc(C#N)c(O[C@H]2CC[C@@](C)(C(=O)O)CC2)cc1C(=O)N[C@@H]1[C@H]2CC[C@H](C2)[C@@H]1C(=O)NCC1C(C)(C)C1(C)C [Example 84]	solubility	340 µM
COc1cc(F)c(O[C@H]2CC[C@@H](C(=O)O)CC2)cc1C(=O)N[C@@H]1[C@H]2CC[C@H](C2)[C@@H]1C(=O)Nc1ccc(C(F)F)cc1 [Example 181]	solubility	680 µM
COc1cc(F)c(O[C@H]2CC[C@@](C)(C(=O)O)CC2)cc1C(=O)Nc1cc(C)c(C)cc1C(=O)NCC1(C)CCC1 [Example 212]	solubility	4 µM
COc1cc(C#N)c(O[C@H]2CC[C@@](C)(C(=O)O)CC2)cc1C(=O)N[C@@H]1[C@H]2CC[C@H](C2)[C@@H]1C(=O)NCC1(C)CC1 [Example 98]	solubility	810 µM
COc1cc(F)c(-c2ccc(C[C@H](C(=O)O)N(C)C)cc2)cc1C(=O)N[C@@H]1[C@H]2CC[C@H](C2)[C@@H]1C(=O)Nc1cccc(S(=O)(=O)C(F)(F)F)c1 [Example 292]	solubility	18 µM
COc1cc(F)c(-c2ccc(OCC(=O)O)cc2)cc1C(=O)N[C@@H]1[C@H]2CC[C@H](C2)[C@@H]1C(=O)Nc1cccc(S(=O)(=O)C(F)(F)F)c1 [Example 257]	solubility	> 1000 µM
COc1cc(F)c(O[C@H]2CC[C@@H](C(=O)O)CC2)cc1C(=O)N[C@@H]1[C@H]2CC[C@H](C2)[C@@H]1C(=O)NC1CC(F)(F)C1 [Example 33]	solubility	> 1000 µM
COc1cc(F)c(O[C@H]2CC[C@@](C)(C(=O)O)CC2)cc1C(=O)Nc1nn2cccnc2c1C(=O)NCC1(C)CCC1 [Example 217]	solubility	< 7.3 µM
